target entity: Estrogen receptor (Homo sapiens)
Sequence (P03372 whole entry): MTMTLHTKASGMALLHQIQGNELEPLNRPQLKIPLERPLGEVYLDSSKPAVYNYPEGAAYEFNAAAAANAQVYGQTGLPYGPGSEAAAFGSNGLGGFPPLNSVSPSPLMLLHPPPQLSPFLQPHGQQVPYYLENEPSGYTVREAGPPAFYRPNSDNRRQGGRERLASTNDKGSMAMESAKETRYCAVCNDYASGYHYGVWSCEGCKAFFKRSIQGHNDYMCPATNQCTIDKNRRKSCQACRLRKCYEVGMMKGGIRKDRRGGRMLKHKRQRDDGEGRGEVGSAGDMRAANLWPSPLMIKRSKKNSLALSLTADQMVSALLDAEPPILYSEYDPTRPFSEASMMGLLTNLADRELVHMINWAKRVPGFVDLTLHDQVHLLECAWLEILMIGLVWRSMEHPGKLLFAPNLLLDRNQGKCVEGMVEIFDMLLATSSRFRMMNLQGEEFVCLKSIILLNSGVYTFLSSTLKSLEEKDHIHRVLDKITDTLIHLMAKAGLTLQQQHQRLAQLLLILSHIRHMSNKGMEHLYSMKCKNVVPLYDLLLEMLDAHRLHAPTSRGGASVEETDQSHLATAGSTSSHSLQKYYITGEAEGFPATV
test details: Suppression of ER alpha in human MCF7 cells after 24 hrs by immunostaining analysis
Format: cell-based
Task for the reader: assign each of the following compounds its reported pIC50.
Numbers only, as −log10 of the molar value.

| structure smiles string | pIC50 |
| --- | --- |
| O=C(O)/C=C/c1ccc(Cc2c(-c3ccc(OC(F)(F)F)cc3)c(=O)oc3ccccc23)cc1 | 5.89 |
| O=C(O)/C=C/c1ccc(Cc2c(-c3ccc(F)cc3F)c(=O)oc3cc(O)ccc23)cc1 | 6.18 |
| Cc1cc(F)ccc1-c1c(Cc2ccc(/C=C/C(=O)O)cc2)c2c(F)cc(O)cc2oc1=O | 7.26 |
| O=C(O)/C=C/c1ccc(Cc2c(-c3ccc(Cl)cc3)c(=O)oc3cc(O)ccc23)cc1 | 6.33 |
| COc1cccc(-c2c(Cc3ccc(/C=C/C(=O)O)cc3)c3ccc(O)cc3oc2=O)c1 | 5.25 |

Would you mind listing pIC50 for each of the following compounds?
1. COc1ccc(-c2c(Cc3ccc(/C=C/C(=O)O)cc3)c3ccc(O)cc3oc2=O)cc1
2. O=C(O)/C=C/c1ccc(Cc2c(-c3ccccc3)c(=O)oc3cc(O)ccc23)cc1
3. O=C(O)/C=C/c1ccc(Cc2c(-c3ccc(F)cc3Cl)c(=O)oc3cc(O)ccc23)cc1

stdout:
1. 6.46
2. 5.93
3. 6.75

---

test details: Intrinsic clearance in rat hepatocytes measured per 10^6 cells
Format: ADME, cell-based, Hepatocyte
conditions: read-out: CLH
Task for the reader: assign each of the following molecules its reported hepatocyte CLint.
Write the figure, then the unit, nothing else.

| structure smiles string | hepatocyte CLint |
| --- | --- |
| CCOc1ccc2c(Oc3ccc(/C=C/C(=O)O)cc3)c(-c3ccc(OC(F)(F)F)cc3C)c(=O)oc2c1 | 21 µL/min/1e6 cells |
| Cc1cc(F)ccc1-c1c(Cc2ccc(/C=C/C(=O)O)cc2)c2c(F)cc(O)cc2oc1=O | 69 µL/min/1e6 cells |
| O=C(O)/C=C/c1ccc(Cc2c(-c3ccccc3)c(=O)oc3cc(O)ccc23)cc1 | 120 µL/min/1e6 cells |
| Cc1cc(OC(F)(F)F)ccc1-c1c(Oc2ccc(/C=C/C(=O)O)cc2)c2ccccc2oc1=O | 19 µL/min/1e6 cells |
| O=C(O)/C=C/c1ccc(Cc2c(-c3ccc(OC(F)(F)F)cc3)c(=O)oc3cc(F)ccc23)cc1 | 4.4 µL/min/1e6 cells |
| COc1ccc2c(Cc3ccc(/C=C/C(=O)O)cc3)c(-c3ccc(OC(F)(F)F)cc3)c(=O)oc2c1 | 23 µL/min/1e6 cells |
| Cc1cc(F)ccc1-c1c(Cc2ccc(/C=C/C(=O)O)cc2)c2ccc(O)cc2oc1=O | 81 µL/min/1e6 cells |
| CC/C(=C(\c1ccc(O)cc1)c1ccc(/C=C/C(=O)O)cc1)c1ccccc1 | 12 µL/min/1e6 cells |

Let us examine a further case.
stdin: Please report the recorded hepatocyte CLint for Cc1cc(OC(F)(F)F)ccc1-c1c(Oc2ccc(/C=C/C(=O)O)cc2)c2ccc(O)cc2oc1=O .
stdout: 41 µL/min/1e6 cells

---

test details: Dissociation constant, pKa of the compound in acidic medium by potentiometric analysis
Assay type: physicochemical
metric: pKa
Answers are plain numbers.

| structure smiles string | pKa |
| --- | --- |
| O=C(O)/C=C/c1ccc(Cc2c(-c3ccccc3)c(=O)oc3cc(O)ccc23)cc1 | 4.4 |

Let us examine a further case.
stdin: Please report the recorded pKa for Cc1cc(F)ccc1-c1c(Oc2ccc(/C=C/C(=O)O)cc2)c2ccc(O)cc2oc1=O .
stdout: 3.9
